- target desc: UniProt O15527
- Sequence (O15527 whole entry): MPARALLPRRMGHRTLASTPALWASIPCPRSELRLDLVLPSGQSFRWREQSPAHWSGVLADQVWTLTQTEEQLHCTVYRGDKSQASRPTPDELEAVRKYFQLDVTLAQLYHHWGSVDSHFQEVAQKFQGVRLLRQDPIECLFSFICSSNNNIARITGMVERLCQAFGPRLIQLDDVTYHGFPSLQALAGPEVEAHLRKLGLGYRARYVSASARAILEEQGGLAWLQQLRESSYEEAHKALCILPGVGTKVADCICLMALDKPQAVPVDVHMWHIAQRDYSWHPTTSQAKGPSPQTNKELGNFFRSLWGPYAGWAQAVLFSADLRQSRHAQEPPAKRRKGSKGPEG
- assay method text: Differential scanning fluorimetry
- Type: binding
In this section, each of the molecules is paired with its reported DSF stabilization (ΔT).
Numbers only here, please. The scale is K.

Below, each entry is followed by its recorded DSF stabilization (ΔT) result.
{"compound": "CC(C)(C)c1ccc(NC(=O)N2CCC(n3c(=O)[nH]c4c(Br)cccc43)CC2)cc1", "outcome measure": "DSF stabilization (ΔT)", "data value": 0.0}
{"compound": "O=C(Nc1ccc(Cl)cc1)N1CCC(n2c(=O)[nH]c3cc(Cl)ccc32)CC1", "outcome measure": "DSF stabilization (ΔT)", "data value": 3.8}
{"compound": "O=C(Nc1cccc(F)c1)N1CCC(n2c(=O)[nH]c3cc(Cl)ccc32)CC1", "outcome measure": "DSF stabilization (ΔT)", "data value": 2.4}
{"compound": "Cc1cccc2[nH]c(=O)n(C3CCN(C(=O)Nc4ccc(I)cc4)CC3)c12", "outcome measure": "DSF stabilization (ΔT)", "data value": 2.2}
{"compound": "O=C(Nc1ccc(Cl)cc1)N1CCC(n2c(=O)[nH]c3ccccc32)CC1", "outcome measure": "DSF stabilization (ΔT)", "data value": 4.6}

Fill in the blank: the reported DSF stabilization (ΔT) of Cc1ccc(NC(=O)N2CCC(n3c(=O)[nH]c4ccccc43)CC2)cc1 is ____.
3.1

One more molecule: O=C(Nc1ccc(C(F)(F)F)cc1)N1CCC(n2c(=O)[nH]c3c(Br)cccc32)CC1
1.6

One more molecule: COc1cc(NC(=O)N2CCC(n3c(=O)[nH]c4c(Br)cccc43)CC2)ccc1Cl
1.9
